Assignment: determine reported GI50 for the given compounds.
test system: NCI-H460; assay: NCI tumour cell line growth inhibition, 48 h
Calls of active or inactive are those of the source. Rule as the data show it: active = GI50 up to about 1.1 µM and inactive = higher.

Value lookup for GI50; key = CO[C@]12CC(=O)C3(C(C[C@H]4CC5CCC6=CC(=O)CC[C@]6(OC(C)=O)C5C[C@@]43C)C1)C1C[C@H]3[C@@H]4CCC5=CC(=O)CC[C@]5(OC(C)=O)[C@H]4CC[C@]3(C)C12 (stereo partly drawn)
> 100 µM (inactive)

Value lookup for GI50; key = Cc1cccc(C)c1NC(=O)CCCC(=O)CC(=O)/C=C/c1ccccc1
> 100 µM (inactive)

Value lookup for GI50; key = CC1CC[C@]2(C(=O)O)CCC3(C)C(=CC(=O)C4[C@@]5(C)CCC(=O)C(C)(C)C5CC[C@]43C)[C@@H]2[C@H]1C (stereo partly drawn)
26.2 µM (inactive)

Value lookup for GI50; key = Cn1c(=O)c2c(ncn2CCNC(CO)C(O)c2ccc([N+](=O)[O-])cc2)n(C)c1=O (stereo not drawn)
> 100 µM (inactive)

Value lookup for GI50; key = COC(=O)C1c2cc3c(c(O)c2CCC1(C)O)C(=O)c1c(O)cc2c(c1C3=O)OC1OC2(C)C(O)C(N(C)C)C1O (stereo not drawn)
0.452 µM (active)

Value lookup for GI50; key = CC(C)(C)c1cc(C(P(=O)(c2ccccc2)c2ccccc2)P(=O)(c2ccccc2)c2ccccc2)cc(C(C)(C)C)c1O
2.11 µM (inactive)

Value lookup for GI50; key = O=[N+]([O-])c1ccc(O)c(/C=N/c2nc(-c3ccccc3)cs2)c1
38.1 µM (inactive)

Value lookup for GI50; key = Oc1nc(-c2cccc(F)c2)nc2ccccc12
36.1 µM (inactive)

----------
tested on: MDA-N; assay: NCI tumour cell line growth inhibition, 48 h
The source made the active and inactive calls. No stated cut-off is given here; in the data, active = GI50 up to about 1.1 µM and inactive = higher.
API: response.call in t for active, f for inactive

Per the records of this test, what outcome belongs to NC1=Nc2ccccc2Sc2nccn21 ?
f

Per the records of this test, what outcome belongs to CC(=O)[C@]1(O)Cc2c(O)c3c(c(O)c2[C@@H](OC2CC(N)C(O)C(C)O2)C1)C(=O)c1c(OCc2ccccc2)cccc1C3=O (some centres undefined) ?
f

Per the records of this test, what outcome belongs to NC(=O)C[C@H](NC(=O)C1(NC(=O)[C@H](Cc2ccc(CP(=O)(O)O)cc2)NC(=O)C(=O)O)CCCCC1)C(=O)NCCCc1cccc2ccccc12 ?
f

Per the records of this test, what outcome belongs to Clc1c(Cl)c(Cl)c2nn(C3CCCO3)nc2c1Cl (centres undefined) ?
f

Per the records of this test, what outcome belongs to COC(=O)C1(O)c2ccccc2N=C2C(=O)c3ccccc3N21 (centres undefined) ?
f

Per the records of this test, what outcome belongs to CC(C)(C)c1cc(C2=NN(c3ccccc3)C(c3ccccc3)C2)cc(C(C)(C)C)c1O (centres undefined) ?
f

Per the records of this test, what outcome belongs to C=CCOC(=O)/C(=C\c1ccc(OC)c(OC)c1)c1ccc(OC)c(OC)c1 ?
f

Per the records of this test, what outcome belongs to O=[N+]([O-])/C=C/c1cc2ccccc2[nH]1 ?
f

Per the records of this test, what outcome belongs to CO[C@]12CC(=O)C3(C(C[C@H]4CC5CCC6=CC(=O)CC[C@]6(OC(C)=O)C5C[C@@]43C)C1)C1C[C@H]3[C@@H]4CCC5=CC(=O)CC[C@]5(OC(C)=O)[C@H]4CC[C@]3(C)C12 (some centres undefined) ?
f

Per the records of this test, what outcome belongs to COC(=O)C(=O)C(C(=O)C(=O)Nc1nc2ccc(C)cc2s1)c1nc2ccc([N+](=O)[O-])cc2nc1O (centres undefined) ?
f

Per the records of this test, what outcome belongs to COc1ccccc1N1CCN(Cn2c(=O)oc3cccnc32)CC1 ?
f

Per the records of this test, what outcome belongs to Clc1cc(Cl)cc(C2ON=C(c3ccccc3)N2C23CC4CC(CC(C4)C2)C3)c1 (centres undefined) ?
f

Per the records of this test, what outcome belongs to CCc1cc2c(cc1C(=O)CCC(=O)O)CC1(C2)Cc2cc(CC)c(C(=O)CCC(=O)O)cc2C1 ?
f

Per the records of this test, what outcome belongs to CC1(C)OCC2OC3(c4nc(C#N)c(N)o4)OC(C)(C)OC3C2O1 (centres undefined) ?
f

Per the records of this test, what outcome belongs to Clc1ccccc1/C=C\C1(c2ccccc2)OCCO1 ?
f

Per the records of this test, what outcome belongs to CC(C)C1OC(N)=C(C#N)C1(C#N)C#N (centres undefined) ?
f

Per the records of this test, what outcome belongs to COc1ccc2nc3n(c2c1)C(c1c(F)cccc1F)SC3 (centres undefined) ?
f

Per the records of this test, what outcome belongs to [N-]=[N+]=NC1=C(c2ccccc2)C(=O)c2cccc3cccc1c23 ?
f

Per the records of this test, what outcome belongs to COc1ccc2nc3cccc([N+](=O)[O-])c3c(NCCN(C)C)c2c1 ?
t

----------
tested on: NCI-H460; assay: NCI tumour cell line growth inhibition, 48 h
The source made the active and inactive calls. Rule as the data show it: active = GI50 up to about 1.1 µM and inactive = higher.
readoutLabel: GI50

# value lookup — system NCI-H460, readout GI50, item [N-]=[N+]=NC1=C(c2ccccc2)C(=O)c2cccc3cccc1c23
5.79 µM (inactive)

# value lookup — system NCI-H460, readout GI50, item CCN(C(=N)C#N)c1ccccc1
> 63.8 µM (inactive)

# value lookup — system NCI-H460, readout GI50, item CCc1n[nH]c(=O)n1NC(=O)CCCC(=O)O
> 100 µM (inactive)

# value lookup — system NCI-H460, readout GI50, item O=P(O)(O)C=C=C1CCCCC1
> 100 µM (inactive)

# value lookup — system NCI-H460, readout GI50, item O=C(Nc1ccc(N2C(=O)CSC2c2ccccc2O)cc1)c1ccc(N2C(=O)CSC2c2ccccc2O)cc1 (stereo unspecified)
83.8 µM (inactive)

# value lookup — system NCI-H460, readout GI50, item c1ccc(-c2nc3ccccc3n3nnnc23)cc1
> 100 µM (inactive)

# value lookup — system NCI-H460, readout GI50, item Cn1cnc(/C=C/C#N)c1
> 100 µM (inactive)

# value lookup — system NCI-H460, readout GI50, item CCC1(O)C(=O)OCc2c1cc1n(c2=O)Cc2cc3cc(OC)c(OC)cc3nc2-1 (stereo unspecified)
3.49 µM (inactive)

# value lookup — system NCI-H460, readout GI50, item COC(=O)C1(O)c2ccccc2N=C2C(=O)c3ccccc3N21 (stereo unspecified)
> 100 µM (inactive)

# value lookup — system NCI-H460, readout GI50, item CN1C(=O)C(O)CC1c1ccc(C(F)(F)F)cc1 (stereo unspecified)
> 100 µM (inactive)

# value lookup — system NCI-H460, readout GI50, item CC(C)(C)C1=CC(=CC=C2C=CN(CCCCCCCCCCCO)C=C2)C=C(C(C)(C)C)C1=O
2.01 µM (inactive)

----------
system: SN12C; assay: NCI tumour cell line growth inhibition, 48 h
Calls of active or inactive are those of the source. No stated cut-off is given here; in the data, active = GI50 up to about 1.1 µM and inactive = higher.
readoutLabel: GI50

Value lookup for GI50; key = O=S(=O)(c1ccccc1)C(CN1CCCCC1)S(=O)(=O)c1ccccc1
> 100 µM (inactive)

Value lookup for GI50; key = C=CCO[C@]1(CC=C)C(=O)C(=O)OC1C1COC(C)(C)O1 (stereo partly specified)
34.4 µM (inactive)

Value lookup for GI50; key = Clc1ccccc1/C=C\C1(c2ccccc2)OCCO1
18.1 µM (inactive)

Value lookup for GI50; key = C=C1CC=CC(C)(C)C1C/C=C(\C)C(O)CBr (stereo unspecified)
> 100 µM (inactive)

Value lookup for GI50; key = O=[N+]([O-])c1ccc2c(Nc3ccccc3-c3ccccc3Nc3c4ccccc4nc4cc([N+](=O)[O-])ccc34)c3ccccc3nc2c1
2.54 µM (inactive)

Value lookup for GI50; key = COC(=O)c1cc(C)n(CN(Cc2ccccc2)Cn2nc(C(=O)OC)cc2C)n1
> 100 µM (inactive)

Value lookup for GI50; key = COc1cc(/C=C2/SC(c3ccccc3)N(c3cc(Cl)ccc3Cl)C2=O)cc(OC)c1OC (stereo unspecified)
> 100 µM (inactive)

Value lookup for GI50; key = O=c1cccccc1NCCOCCNc1cccccc1=O
> 100 µM (inactive)

Value lookup for GI50; key = N=C(N)SC1c2ccccc2-c2cc([N+](=O)[O-])ccc21 (stereo unspecified)
8.51 µM (inactive)

Value lookup for GI50; key = COc1cc(/C=C/C=C2\CC(C)C/C(=C\C=C\c3ccc(O)c(OC)c3)C2=O)ccc1O (stereo unspecified)
31.3 µM (inactive)

Value lookup for GI50; key = Cc1cc(C)c(C#N)c(SC(=S)NC(=O)c2ccccc2)n1
> 100 µM (inactive)

----------
test system: RXF 393; assay: NCI tumour cell line growth inhibition, 48 h
Active and inactive are the calls of the source. Cut-off read from the data, not from the text of the source: active = GI50 up to about 1.1 µM and inactive = higher.
readoutLabel: GI50

Value lookup for GI50; key = NC(=O)CCC(N=C(N)c1csc(C2OC(CO)C(O)C2O)n1)C(=O)O (stereo unspecified)
> 100 µM (inactive)

Value lookup for GI50; key = CC(C)(C)[Si](C)(C)OCC1OC(n2ccc(=O)[nH]c2=O)C(O[Si](C)(C)C(C)(C)C)/C1=N/O (stereo unspecified)
8.39 µM (inactive)

Value lookup for GI50; key = Nc1nc(Cl)c(CO)c(NCC2(CO)CCC2)n1
> 100 µM (inactive)

Value lookup for GI50; key = CN(C)CCn1cnc2sc3ccccc3c21
82.8 µM (inactive)

Value lookup for GI50; key = O=Cc1ccc(-c2cc(C=O)c(-c3cccs3)[nH]2)s1
35.6 µM (inactive)

Value lookup for GI50; key = CNS(=O)(=O)NNS(=O)(=O)c1ccc(C)cc1
> 100 µM (inactive)

All figures here come from ChEMBL document CHEMBL1201862.
